# target_desc: cMET receptor tyrosine kinase (GST-cMET (969-1390)) (Homo sapiens, UniProt P08581)
# Sequence (P08581 969-1390): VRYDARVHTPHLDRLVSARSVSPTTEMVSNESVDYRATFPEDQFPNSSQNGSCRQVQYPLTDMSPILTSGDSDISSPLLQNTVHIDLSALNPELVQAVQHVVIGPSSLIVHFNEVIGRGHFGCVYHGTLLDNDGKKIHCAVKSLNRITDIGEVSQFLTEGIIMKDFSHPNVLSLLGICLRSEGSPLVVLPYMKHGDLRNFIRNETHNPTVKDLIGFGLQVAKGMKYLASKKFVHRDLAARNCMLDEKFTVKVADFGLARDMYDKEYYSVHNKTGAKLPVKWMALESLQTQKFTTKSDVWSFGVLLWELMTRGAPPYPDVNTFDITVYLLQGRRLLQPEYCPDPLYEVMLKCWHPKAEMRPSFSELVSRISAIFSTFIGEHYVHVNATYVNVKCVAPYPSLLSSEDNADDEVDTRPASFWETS
# test_name: EPK cMET profiling assay (LanthaScreen TR-FRET antibody based kinase phosphorylation assay)
# test_context: purified recombinant GST-cMET (969-1390), 2 μM ATP, 50 nM Fluorescein-PolyEAY, 60 minutes at room temperature; read-out: c-Met IC50
Form field: IC50 (one value per entry).
property: IC50 (nM)

[
  {
    "compound": "CC(=O)c1cccc(-c2ccc3ncc(Cc4ccc5ncccc5c4)n3n2)c1",
    "target_desc": "cMET receptor tyrosine kinase (GST-cMET (969-1390)) (Homo sapiens, UniProt P08581)",
    "measured_value": 31
  },
  {
    "compound": "CNC1CCN(c2ccc3ncc(Cc4cc5cccnc5cc4F)n3n2)C1 (racemic)",
    "target_desc": "cMET receptor tyrosine kinase (GST-cMET (969-1390)) (Homo sapiens, UniProt P08581)",
    "measured_value": 5.2
  },
  {
    "compound": "Clc1ccc2ncc(Cc3ccc4nccn4c3)n2n1",
    "target_desc": "cMET receptor tyrosine kinase (GST-cMET (969-1390)) (Homo sapiens, UniProt P08581)",
    "measured_value": 200
  },
  {
    "compound": "Fc1cc2ncccc2cc1Cc1cnc2ccc(-c3cnn(CCN4CCCC4)c3)nn12",
    "target_desc": "cMET receptor tyrosine kinase (GST-cMET (969-1390)) (Homo sapiens, UniProt P08581)",
    "measured_value": 26
  },
  {
    "compound": "CN1CCC(n2cc(-c3ccc4ncc(Cc5cc6cccnc6cc5F)n4n3)cn2)CC1",
    "target_desc": "cMET receptor tyrosine kinase (GST-cMET (969-1390)) (Homo sapiens, UniProt P08581)",
    "measured_value": 65
  },
  {
    "compound": "Cn1cc(-c2ccc3ncc(Cc4ccc5ncccc5c4Cl)n3n2)cn1",
    "target_desc": "cMET receptor tyrosine kinase (GST-cMET (969-1390)) (Homo sapiens, UniProt P08581)",
    "measured_value": 10
  },
  {
    "compound": "CC(c1ccc2ncn(CCN3CCCC3)c2c1)c1cnc2ccc(-c3cnn(C)c3)nn12 (racemic)",
    "target_desc": "cMET receptor tyrosine kinase (GST-cMET (969-1390)) (Homo sapiens, UniProt P08581)",
    "measured_value": 310
  },
  {
    "compound": "OCCN1CCC(n2cc(-c3ccc4ncc(Cc5cc6cccnc6cc5F)n4n3)cn2)CC1",
    "target_desc": "cMET receptor tyrosine kinase (GST-cMET (969-1390)) (Homo sapiens, UniProt P08581)",
    "measured_value": 82
  },
  {
    "compound": "CN(C)CCCNc1ccc2ncc(Cc3ccc4ncccc4c3)n2n1",
    "target_desc": "cMET receptor tyrosine kinase (GST-cMET (969-1390)) (Homo sapiens, UniProt P08581)",
    "measured_value": 130
  },
  {
    "compound": "Cc1nccn1-c1ccc2ncc(Cc3ccc4ncccc4c3)n2n1",
    "target_desc": "cMET receptor tyrosine kinase (GST-cMET (969-1390)) (Homo sapiens, UniProt P08581)",
    "measured_value": 980
  },
  {
    "compound": "CCn1cc(-c2ccc3ncc(Cc4cc5cccnc5cc4Cl)n3n2)cn1",
    "target_desc": "cMET receptor tyrosine kinase (GST-cMET (969-1390)) (Homo sapiens, UniProt P08581)",
    "measured_value": 86
  },
  {
    "compound": "C[C@@H](c1ccc2ncccc2c1)c1cnc2ccc(Cl)nn12",
    "target_desc": "cMET receptor tyrosine kinase (GST-cMET (969-1390)) (Homo sapiens, UniProt P08581)",
    "measured_value": 21
  },
  {
    "compound": "c1cnc2ccc(Cc3cnc4ccc(NC5CCCC5)nn34)cc2c1",
    "target_desc": "cMET receptor tyrosine kinase (GST-cMET (969-1390)) (Homo sapiens, UniProt P08581)",
    "measured_value": 76
  },
  {
    "compound": "c1cnc2ccc(Cc3cnc4ccc(-n5cccn5)nn34)cc2c1",
    "target_desc": "cMET receptor tyrosine kinase (GST-cMET (969-1390)) (Homo sapiens, UniProt P08581)",
    "measured_value": 570
  },
  {
    "compound": "CCN1CCC(n2cc(-c3ccc4ncc(Cc5cc6cccnc6cc5F)n4n3)cn2)CC1",
    "target_desc": "cMET receptor tyrosine kinase (GST-cMET (969-1390)) (Homo sapiens, UniProt P08581)",
    "measured_value": 16
  },
  {
    "compound": "NC(=O)c1cccc(-c2ccc3ncc(Cc4ccc5ncccc5c4)n3n2)c1",
    "target_desc": "cMET receptor tyrosine kinase (GST-cMET (969-1390)) (Homo sapiens, UniProt P08581)",
    "measured_value": 63
  },
  {
    "compound": "Cn1cc(-c2ccc3ncc(C(O)c4ccc5nccn5c4)n3n2)cn1 (racemic)",
    "target_desc": "cMET receptor tyrosine kinase (GST-cMET (969-1390)) (Homo sapiens, UniProt P08581)",
    "measured_value": 170
  }
]
